Assay: 8-day repeat-dose study, tolerability (blood chemistry, hematology, adverse events) in tumor-bearing dogs
Type: in vivo, dog
Settings: Dog 2; Post: 30 min after last injection on day 8; 10 mg s.c. once daily for 8 days
Description: Previous studies utilizing repeat dosing in mice and rats established safe starting doses for studies using dogs. […] Blood levels of AFPep were measured before and 30 minutes following its administration on the first day and eighth day of treatment with AFPep. […] Tolerability was assessed using the Veterinary Cooperative Oncology Group Common Terminology Criteria for Adverse Events. […]
Where a SMILES comes first, the peptide text is derived from it. [ ]: non-standard residue; d: D form. Hyp = O=C(O)[C@@H]1C[C@@H](O)CN1
Measured quantity: Creatine Kinase (U/L)
Output spec: scalar in U/L, unitless text.

Give Creatine Kinase for CC(C)[C@@H]1NC(=O)[C@@H]2C[C@@H](O)CN2C(=O)[C@H]([C@@H](C)O)NC(=O)[C@H](CCCCN)NC(=O)[C@H](CCC(=O)O)NC(=O)[C@H](CC(N)=O)NC(=O)CNC(=O)[C@@H]2C[C@@H](O)CN2C(=O)[C@H](CC(N)=O)NC1=O [AFPep] (cyclo(EKT[Hyp]VN[Hyp]GN))
225
